system.under.test: recombinant IL4I1 (Homo sapiens (Human), UniProt Q96RQ9)
Sequence (Q96RQ9 22-567): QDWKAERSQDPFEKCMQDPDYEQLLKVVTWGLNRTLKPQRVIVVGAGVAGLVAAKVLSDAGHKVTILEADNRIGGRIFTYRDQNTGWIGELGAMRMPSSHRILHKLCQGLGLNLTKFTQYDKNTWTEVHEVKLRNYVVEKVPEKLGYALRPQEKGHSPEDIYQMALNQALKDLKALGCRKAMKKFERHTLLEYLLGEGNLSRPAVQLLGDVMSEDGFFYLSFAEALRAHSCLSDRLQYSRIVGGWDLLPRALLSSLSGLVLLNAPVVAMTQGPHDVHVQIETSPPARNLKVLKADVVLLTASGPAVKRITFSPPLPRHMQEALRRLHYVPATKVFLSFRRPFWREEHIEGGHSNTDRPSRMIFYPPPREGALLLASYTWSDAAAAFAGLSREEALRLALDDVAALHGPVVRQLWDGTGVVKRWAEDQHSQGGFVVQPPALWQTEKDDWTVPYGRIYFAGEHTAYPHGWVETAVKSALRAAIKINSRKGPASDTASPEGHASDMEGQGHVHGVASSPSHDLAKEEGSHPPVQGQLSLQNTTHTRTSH
test.description: IL4I1 Enzymatic Assay (Amplex Red/HRP coupled fluorescence detection of H2O2)
Assay type: biochemical
assay.setup: 240 min; recombinant IL4I1, four-hour pre-incubation with compound
attribute.measured: EC50

Cc1ccccc1-c1nnc(CN2CCN(C34CC(C3)C4)C(=O)C2=O)s1	13 nM

The compound identified as O=c1c(=O)n(C2CCC2)ccn1Cc1cc(-c2ccccc2F)on1 registered its EC50 at 3 nM

Per the records, this compound ( O=C1C(=O)N(C2CCC2)CCN1Cc1cc(-c2ccccc2F)no1 ) has EC50 equal to 3 nM

The measured EC50 associated with O=C1C(=O)N(C2CCCC2)CCN1Cc1ncc(-c2ccccn2)cn1 reads 69 nM

Lab note: O=c1c(=O)n(C2(CF)CC2)ccn1Cc1ccc(-c2nccs2)nn1 gave EC50 of 54 nM

The measured EC50 associated with O=c1c(=O)n(C23CC(F)(C2)C3)ccn1Cc1ccc(-c2ccccn2)nn1 reads 56 nM

Form: compound = O=C1C(=O)N(C23CC(C2)C3)CCN1Cc1ccc(-c2ccccc2)cn1 ; EC50 = 7 nM

Per the records, this compound ( O=c1c(=O)n(C2CCC2)ccn1Cc1cc(-c2ccccn2)on1 ) has EC50 equal to 8 nM

Measured EC50, O=C1C(=O)N(C2CCCC2)CCN1CC12CC(c3ccccc3)(C1)C2 : 15 nM

Item: O=c1c(=O)n([C@H]2C[C@H]3C[C@H]3C2)ccn1Cc1ccc(-c2ccccc2F)nn1 | EC50: 4 nM

Entry N#CC1(n2ccn(Cc3ccc(-c4ccccn4)nn3)c(=O)c2=O)CC1 — recorded EC50 = 162 nM

Per the record, O=C1C(=O)N(CC2CCC2)CCN1Cc1ncc(-c2ccccc2)cn1 has EC50 of 35 nM

###

Attribute: log10 of EC50
system.under.test: recombinant IL4I1 (Homo sapiens (Human))
test.description: IL4I1 Enzymatic Assay (Amplex Red/HRP coupled fluorescence detection of H2O2)
Assay type: biochemical
assay.setup: 240 min; recombinant IL4I1, four-hour pre-incubation with compound
The common logarithm of EC50 in nM is what is listed.

Below, 10 compounds whose answers are already recorded.
O=C1C(=O)N(C2CCCC2)CCN1Cc1nnc(N2CCCCC2)s1	1.61
O=c1c(=O)n(C23CC(F)(C2)C3)ccn1Cc1ccc(-n2ccnn2)nc1	1.96
CC1(n2ccn(Cc3cc(-c4ccc(F)cc4)no3)c(=O)c2=O)CCC1	0.60
O=C1C(=O)N(C2CCCC2)CCN1Cc1ncc(-c2nccs2)cn1	1.98
O=C1C(=O)N(C2CCCC2)CCN1Cc1ncc(-c2nccs2)cc1F	1.41
N#CC1(n2ccn(Cc3cc(-c4cccnc4)no3)c(=O)c2=O)CC1	2.50
O=C1C(=O)N([C@H]2C[C@H](c3ccccc3)C2)CCN1Cc1ccc(-c2ccccc2)nn1 [Example 96A]	1.15
O=C1C(=O)N(C2CCC2)CCN1Cc1nnc(-c2ccccc2F)s1	0.90
O=C1C(=O)N(C2CCCC2)CCN1Cc1ccc(N2CCOCC2)nn1	1.65
O=C1C(=O)N(C2CCC2)CCN1Cc1noc(-c2ccccn2)c1Br	1.23

Measured log10 of EC50 of O=C1C(=O)N(C23CC(C2)C3)CCN1Cc1nnc(-c2cccc(F)c2)s1 : 0.95

CC1(n2ccn(Cc3nnc(-c4cccc(F)c4)s3)c(=O)c2=O)CCC1 has a reported log10 of EC50 of 1.00

// recorded log10 of EC50 for O=C1C(=O)N(C2CCC2)CCN1Cc1cc(-c2ccccn2)on1 : 1.08

Measured log10 of EC50 of C[C@@H](c1nnc(-c2ccccc2)s1)N1CCN(C2CCC2)C(=O)C1=O : 1.45

Noted for CC(C)(C)N1CCN(Cc2nnc(-c3ccccc3)s2)C(=O)C1=O : its log10 of EC50 reads 1.30

Entry O=C1C(=O)N(C23CC(F)(C2)C3)CCN1Cc1cn(-c2ccccn2)nn1 — recorded log10 of EC50 = 1.89

Just so you know, measured log10 of EC50 for O=C1C(=O)N(C2CCCC2)CCN1Cc1cc(-c2cccc(F)c2)no1 came out at 0.48

Record CC(Cc1nnc(-c2ccccc2)s1)N1CCN(C2CCCC2)C(=O)C1=O (stereo not drawn) , field log10 of EC50: 1.11
